src = the supplement of paper PMC11196671

Below, each entry is listed with its recorded MHET released.
Assay: MHET released, HPLC; higher = more MHET released; extreme values may be limits of the assay
Settings: PET substrate: cryPow; 70 °C; pH 4.5; 24 h
Assay endpoint: MHET released

[[record]]
sequence_record = "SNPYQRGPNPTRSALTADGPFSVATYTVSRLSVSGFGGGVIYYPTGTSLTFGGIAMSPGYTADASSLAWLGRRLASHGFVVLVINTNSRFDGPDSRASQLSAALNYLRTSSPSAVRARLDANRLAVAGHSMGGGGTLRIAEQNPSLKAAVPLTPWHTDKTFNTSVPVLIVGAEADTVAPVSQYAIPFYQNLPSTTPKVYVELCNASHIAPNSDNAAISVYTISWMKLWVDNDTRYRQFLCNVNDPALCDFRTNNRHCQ [LCC-A2]"
data_value = "0.00805 mM"

[[record]]
sequence_record = "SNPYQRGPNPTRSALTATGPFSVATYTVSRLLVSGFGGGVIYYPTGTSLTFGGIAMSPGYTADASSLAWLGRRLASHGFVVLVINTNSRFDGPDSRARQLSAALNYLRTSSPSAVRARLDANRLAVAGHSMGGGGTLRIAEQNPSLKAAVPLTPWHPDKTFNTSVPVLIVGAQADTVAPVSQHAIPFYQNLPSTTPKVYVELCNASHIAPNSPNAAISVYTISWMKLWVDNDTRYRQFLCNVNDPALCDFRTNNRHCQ [LCC-ICCG I6M]"
data_value = "0 mM"

[[record]]
sequence_record = "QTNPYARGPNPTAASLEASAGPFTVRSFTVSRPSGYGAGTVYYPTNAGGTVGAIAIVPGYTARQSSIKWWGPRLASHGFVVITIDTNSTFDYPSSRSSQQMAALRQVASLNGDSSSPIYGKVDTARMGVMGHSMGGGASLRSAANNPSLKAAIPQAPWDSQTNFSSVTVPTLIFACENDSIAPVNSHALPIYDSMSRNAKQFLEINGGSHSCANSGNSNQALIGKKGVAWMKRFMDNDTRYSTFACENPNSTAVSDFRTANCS [DuraPETase]"
data_value = "0 mM"

[[record]]
sequence_record = "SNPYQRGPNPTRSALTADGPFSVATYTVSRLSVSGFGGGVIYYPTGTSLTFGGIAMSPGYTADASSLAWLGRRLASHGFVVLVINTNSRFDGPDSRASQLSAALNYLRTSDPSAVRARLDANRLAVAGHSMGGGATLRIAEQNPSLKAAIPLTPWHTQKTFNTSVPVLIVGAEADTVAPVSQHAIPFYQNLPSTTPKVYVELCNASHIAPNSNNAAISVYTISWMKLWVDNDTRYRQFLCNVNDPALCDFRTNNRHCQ [LCC-ICCG DAQI]"
data_value = "0 mM"

[[record]]
sequence_record = "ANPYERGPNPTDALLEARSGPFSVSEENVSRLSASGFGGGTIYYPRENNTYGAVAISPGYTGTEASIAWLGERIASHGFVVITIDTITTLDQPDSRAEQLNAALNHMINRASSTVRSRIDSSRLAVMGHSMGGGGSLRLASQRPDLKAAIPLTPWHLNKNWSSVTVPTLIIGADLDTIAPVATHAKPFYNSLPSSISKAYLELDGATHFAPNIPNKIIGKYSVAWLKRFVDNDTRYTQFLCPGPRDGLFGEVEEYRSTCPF [TfCut2]"
data_value = "0 mM"

[[record]]
sequence_record = "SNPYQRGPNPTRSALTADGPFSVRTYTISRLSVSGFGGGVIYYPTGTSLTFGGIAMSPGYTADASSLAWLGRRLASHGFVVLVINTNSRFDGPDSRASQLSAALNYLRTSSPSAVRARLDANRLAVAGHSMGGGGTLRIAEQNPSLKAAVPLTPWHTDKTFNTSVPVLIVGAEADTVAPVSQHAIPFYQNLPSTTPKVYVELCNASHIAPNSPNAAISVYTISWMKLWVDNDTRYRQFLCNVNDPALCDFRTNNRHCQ [LCC-ICCG RIP]"
data_value = "0.0111 mM"


====

Measured terephthalic acid, listed per entry.
Experiment: terephthalic acid (TPA) released, HPLC; higher = more TPA released; extreme values may be limits of the assay
Conditions: PET substrate: aFilm; 70 °C; pH 6.5; 24 h
Assay endpoint: terephthalic acid (mM)

[[record]]
sequence_record = "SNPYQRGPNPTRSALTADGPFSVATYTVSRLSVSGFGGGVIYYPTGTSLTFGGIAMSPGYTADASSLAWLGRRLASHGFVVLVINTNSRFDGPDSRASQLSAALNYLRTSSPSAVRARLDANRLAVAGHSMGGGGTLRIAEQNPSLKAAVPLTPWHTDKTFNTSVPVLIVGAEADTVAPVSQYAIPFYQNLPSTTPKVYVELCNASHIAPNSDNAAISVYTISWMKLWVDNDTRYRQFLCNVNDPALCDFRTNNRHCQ [LCC-A2]"
data_value = 0.83

[[record]]
sequence_record = "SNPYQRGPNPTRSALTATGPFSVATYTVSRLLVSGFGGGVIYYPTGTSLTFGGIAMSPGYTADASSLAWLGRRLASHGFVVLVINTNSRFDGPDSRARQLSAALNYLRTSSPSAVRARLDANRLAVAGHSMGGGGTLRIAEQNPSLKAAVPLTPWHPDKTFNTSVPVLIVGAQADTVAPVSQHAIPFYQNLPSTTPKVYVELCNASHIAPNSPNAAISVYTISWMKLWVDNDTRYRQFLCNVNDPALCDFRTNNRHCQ [LCC-ICCG I6M]"
data_value = 0.246


====

Experiment: MHET released, HPLC; higher = more MHET released; extreme values may be limits of the assay
Settings: PET substrate: aFilm; 70 °C; pH 5.5; 24 h
Assay endpoint: MHET released (mM)

[[record]]
sequence_record = "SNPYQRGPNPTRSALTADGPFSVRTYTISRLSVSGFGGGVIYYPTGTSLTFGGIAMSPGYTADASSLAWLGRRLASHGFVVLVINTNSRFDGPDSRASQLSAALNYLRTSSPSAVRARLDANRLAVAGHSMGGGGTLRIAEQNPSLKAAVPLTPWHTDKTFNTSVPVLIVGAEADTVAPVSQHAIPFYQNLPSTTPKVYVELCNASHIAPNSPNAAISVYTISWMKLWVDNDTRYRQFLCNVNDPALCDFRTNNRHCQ [LCC-ICCG RIP]"
data_value = 0.23


====

Assay: terephthalic acid (TPA) released, HPLC; higher = more TPA released; extreme values may be limits of the assay
Conditions: PET substrate: cryPow; 70 °C; pH 4.5; 24 h
Assay endpoint: terephthalic acid (mM)

[[record]]
sequence_record = "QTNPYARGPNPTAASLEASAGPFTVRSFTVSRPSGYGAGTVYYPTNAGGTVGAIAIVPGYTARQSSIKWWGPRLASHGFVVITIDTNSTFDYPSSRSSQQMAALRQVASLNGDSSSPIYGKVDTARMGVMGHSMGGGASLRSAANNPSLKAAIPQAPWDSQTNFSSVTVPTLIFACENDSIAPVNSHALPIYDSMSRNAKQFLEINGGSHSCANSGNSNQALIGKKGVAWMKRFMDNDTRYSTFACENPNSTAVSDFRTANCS [DuraPETase]"
assay_endpoint = "terephthalic acid"
unit_text = "mM"
data_value = 0

[[record]]
sequence_record = "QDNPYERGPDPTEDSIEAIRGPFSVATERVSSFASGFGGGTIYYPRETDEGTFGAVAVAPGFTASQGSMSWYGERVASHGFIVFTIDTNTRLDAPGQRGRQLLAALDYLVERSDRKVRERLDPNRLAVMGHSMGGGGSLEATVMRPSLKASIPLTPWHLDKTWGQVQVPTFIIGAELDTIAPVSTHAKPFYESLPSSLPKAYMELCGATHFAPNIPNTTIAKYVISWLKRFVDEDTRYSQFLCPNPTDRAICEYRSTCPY [Cut190*SS]"
assay_endpoint = "terephthalic acid"
unit_text = "mM"
data_value = 0

[[record]]
sequence_record = "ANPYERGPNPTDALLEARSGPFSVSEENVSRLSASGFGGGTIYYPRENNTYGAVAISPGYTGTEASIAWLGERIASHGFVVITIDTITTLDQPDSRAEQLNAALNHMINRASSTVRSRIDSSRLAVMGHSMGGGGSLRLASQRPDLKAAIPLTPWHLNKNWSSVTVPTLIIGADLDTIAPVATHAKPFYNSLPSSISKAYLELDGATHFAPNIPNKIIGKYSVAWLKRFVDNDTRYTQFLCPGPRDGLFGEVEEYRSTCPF [TfCut2]"
assay_endpoint = "terephthalic acid"
unit_text = "mM"
data_value = 0


====

Assay: MHET released, HPLC; higher = more MHET released; extreme values may be limits of the assay
Conditions: PET substrate: cryPow; 70 °C; pH 5.5; 24 h
Assay endpoint: MHET released (mM)

[[record]]
sequence_record = "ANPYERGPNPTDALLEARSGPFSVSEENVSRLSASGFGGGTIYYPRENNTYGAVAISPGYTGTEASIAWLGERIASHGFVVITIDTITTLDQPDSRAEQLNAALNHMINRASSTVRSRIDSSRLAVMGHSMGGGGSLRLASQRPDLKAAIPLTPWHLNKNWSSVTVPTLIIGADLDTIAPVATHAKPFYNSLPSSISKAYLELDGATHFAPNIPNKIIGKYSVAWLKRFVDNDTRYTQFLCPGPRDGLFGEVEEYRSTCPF [TfCut2]"
data_value = 0

[[record]]
sequence_record = "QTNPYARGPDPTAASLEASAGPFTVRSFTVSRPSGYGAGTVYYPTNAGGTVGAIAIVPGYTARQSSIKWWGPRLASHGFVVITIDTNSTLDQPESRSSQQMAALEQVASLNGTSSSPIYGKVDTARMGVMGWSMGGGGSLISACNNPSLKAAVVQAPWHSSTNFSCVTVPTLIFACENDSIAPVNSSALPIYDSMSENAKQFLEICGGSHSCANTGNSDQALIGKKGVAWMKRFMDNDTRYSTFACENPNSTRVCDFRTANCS [Z1-PETase]"
data_value = 0

